src = the supplement of paper PMC10883282

Test system: KHOS-240S
Test: relative viability vs DMSO control (72 h) (fraction); higher = more viable cells
Details: 0.1235 µM
Test readout: relative viability

* Cn1cnc2c(F)c(Nc3ccc(Br)cc3Cl)c(C(=O)NOCCO)cc21 [Selumetinib] | 0.91
* Cc1cc2c(F)c(Oc3ncnn4cc(OC[C@@H](C)OC(=O)[C@H](C)N)c(C)c34)ccc2[nH]1 [Brivanib_alaninate] | 1.03
* CCS(=O)(=O)N1CC(CC#N)(n2cc(-c3ncnc4[nH]ccc34)cn2)C1 [Baricitinib] | 1.05
* C=CC(=O)N1CCC(CNc2ncnc(N)c2-c2ccc(Oc3ccccc3)cc2)CC1 [Evobrutinib] | 1.08
* CO[C@H]1C[C@@H]2CC[C@@H](C)[C@@](O)(O2)C(=O)C(=O)N2CCCC[C@H]2C(=O)O[C@H]([C@H](C)C[C@@H]2CC[C@@H](OC(=O)C(C)(CO)CO)[C@H](OC)C2)CC(=O)[C@H](C)/C=C(\C)[C@@H](O)[C@@H](OC)C(=O)[C@H](C)C[C@H](C)/C=C/C=C/C=C/1C [Temsirolimus] | 0.763
* O=C1CCc2c(Oc3ccc4c(c3)[C@@H]3[C@H](O4)[C@H]3c3nc4cc(C(F)(F)F)ccc4[nH]3)ccnc2N1 [Lifirafenib] | 1.06
* C#Cc1cccc(Nc2ncnc3cc4c(cc23)OCCOCCOCCO4)c1 [Icotinib] | 1.1

* * *

Tested on: SW982
Experiment: relative viability vs DMSO control (72 h) (fraction); higher = more viable cells
Settings: 1.111 µM
// returns false (0) unless relative viability is strictly below 0.9, in which case true (1)

- CS(=O)(=O)CCNCc1ccc(-c2ccc3ncnc(Nc4ccc(OCc5cccc(F)c5)c(Cl)c4)c3c2)o1: false (0)
- CNC(=O)c1cccc2cc(Oc3ccnc4cc(OCC5(N)CC5)c(OC)cc34)ccc12: false (0)
- O=S(=O)(c1cccc2c(O)nccc12)N1CCCNCC1 [Hydroxyfasudil]: false (0)
- C[C@@H]1CN(C(=O)c2ccc(NC(=O)c3cc(O[C@H](C)c4c(Cl)ccc(F)c4Cl)c(N)nn3)cc2)C[C@H](C)N1: true (1)
- O=C(/C=C\n1cnc(-c2cc(C(F)(F)F)cc(C(F)(F)F)c2)n1)NNc1cnccn1 [Selinexor]: true (1)
- COC(=O)c1ccc2c(c1)NC(=O)/C2=C(\Nc1ccc(N(C)C(=O)CN2CCN(C)CC2)cc1)c1ccccc1: true (1)

* * *

Each entry below carries its reported relative viability.
Test system: SYO-1
Assay: relative viability vs DMSO control (72 h) (fraction); higher = more viable cells
Settings: 3.333 µM
Test readout: relative viability

- Cc1c2oc3c(C)ccc(C(=O)N[C@@H]4C(=O)N[C@H](C(C)C)C(=O)N5CCC[C@H]5C(=O)N(C)CC(=O)N(C)[C@@H](C(C)C)C(=O)O[C@@H]4C)c3nc-2c(C(=O)N[C@@H]2C(=O)N[C@H](C(C)C)C(=O)N3CCC[C@H]3C(=O)N(C)CC(=O)N(C)[C@@H](C(C)C)C(=O)O[C@@H]2C)c(N)c1=O [Dactinomycin]: 0.298
- CCS(=O)(=O)N1CC(CC#N)(n2cc(-c3ncnc4[nH]ccc34)cn2)C1 [Baricitinib]: 0.952

* * *

System: SW1353
Assay: relative viability vs DMSO control (72 h) (fraction); higher = more viable cells
Conditions: 0.01372 µM
Test readout: relative viability

- C[C@@H]1CN(C(=O)c2ccc(NC(=O)c3cc(O[C@H](C)c4c(Cl)ccc(F)c4Cl)c(N)nn3)cc2)C[C@H](C)N1 [Ensartinib]: 0.955
- O=S(=O)(c1cccc2c(O)nccc12)N1CCCNCC1 [Hydroxyfasudil]: 1.01
- CN(C)C/C=C/C(=O)Nc1cc2c(Nc3ccc(F)c(Cl)c3)ncnc2cc1O[C@H]1CCOC1 [Afatinib]: 0.822
- O=C(c1ccc(F)c(F)c1Nc1ccc(I)cc1F)N1CC(O)([C@@H]2CCCCN2)C1 [Cobimetinib]: 0.899
- CN(C)C(=O)c1cc2cnc(Nc3ccc(N4CCNCC4)cn3)nc2n1C1CCCC1 [Ribociclib]: 0.992
- Cc1c2oc3c(C)ccc(C(=O)N[C@@H]4C(=O)N[C@H](C(C)C)C(=O)N5CCC[C@H]5C(=O)N(C)CC(=O)N(C)[C@@H](C(C)C)C(=O)O[C@@H]4C)c3nc-2c(C(=O)N[C@@H]2C(=O)N[C@H](C(C)C)C(=O)N3CCC[C@H]3C(=O)N(C)CC(=O)N(C)[C@@H](C(C)C)C(=O)O[C@@H]2C)c(N)c1=O [Dactinomycin]: 0.62
- Cc1[nH]c(/C=C2\C(=O)Nc3ccccc32)c(C)c1CCC(=O)O [Orantinib]: 1.05
- Cc1cc2c(F)c(Oc3ncnn4cc(OC[C@@H](C)OC(=O)[C@H](C)N)c(C)c34)ccc2[nH]1 [Brivanib_alaninate]: 0.97
- Cc1cc(F)c(C(=O)Nc2cccc(-c3nncn3C(C)C)n2)cc1-n1cnc(C2CC2)c1 [Selonsertib]: 0.934
